These entries and their values trace back to PubChem BioAssay AID588679.

Molecular target: M17 leucyl aminopeptidase (Plasmodium falciparum 3D7)
Assay: Inhibition of P. falciparum M17 aminopeptidase – biochemical, QFRET, counter-screen for PfM18AAP inhibitor project, dose response (AID 588679)
Details: recombinant PfM17LAP, H-Leu-NHMec fluorogenic cleavage
Reported IC50 by item:

[
  {
    "compound": "CC(C)(C)C(=O)OCc1nc(-c2ccc(O)c(O)c2)cs1",
    "result": "29.4 µM"
  }
]

Consider the compound shown here: "Oc1ccc(CCN2CCc3ccccc3C2)cc1O" What is its recorded IC50?
58.6 µM

Consider the compound shown here: "Oc1ccc(CCNC(c2ccccc2)c2ccccc2)cc1O" What is its recorded IC50?
46.8 µM

Consider the compound shown here: CCC(C)c1ccc(N)c(O)c1 (centres undefined) What is its recorded IC50?
37.6 µM
